These data points were gathered from patent US7332476B2.

System: Streptococcus pneumoniae Stpn_280-962
Experiment: MIC, broth microdilution (NCCLS)
Type: cell-based
Conditions: Table 5, Strain ID G (Table 4): S. pneumoniae Stpn_280-962 Pen S

Molecule: CC[C@H]1OC(=O)[C@H](C)C(=O)[C@H](C)[C@@H](OC2O[C@H](C)C[C@H](N(C)C)[C@H]2O)[C@@](C)(OC)C[C@@H](C)C(=O)[C@H](C)[C@@H]2[C@@H]1OC(=O)N2CCCCn1cnc(-c2ccccc2)c1 (some centres unmarked) [Compound 4710]
MIC: =0.5

Molecule: CC[C@H]1OC(=O)[C@H](C)C(=O)[C@H](C)[C@@H](OC2O[C@H](C)C[C@H](N(C)C)[C@H]2O)[C@@](C)(OC)C[C@@H](C)C(=O)[C@H](C)[C@H]2N(CCCCn3cnc(-c4ccccc4)c3)C(=O)O[C@]12CC (some centres unmarked) [Compound 7281]
MIC: =0.05
